Tested on: 377384-186-R-J1-PDC complex spheroid viability;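 further: spheroids exposed to compounds for seven days before readout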
Assay: Anticancer human tumor 377384-186-R-J1-PDC patient-derived pancreatic carcinoma cell line growth inhibition [RAS]
Details: second compound 0.316 µM; first compound 0.316 µM; stronger effect = lower value
Excerpt: RAS pathway inhibitors in Combinations in Complex Spheroids A high-throughput screen of multi-cell type tumor spheroids was designed to identify active combinations of RAS pathway inhibitors and targeted small molecules. Complex spheroids include a stromal component modeled by human endothelial cells (HUVEC) and fibroblasts modeled by human mesenchymal stem cells (MSCs). […] Compounds. […] If the clinical Cmax for an agent had not been determined, the highest concentration tested was 10 microM. […]
OUTCOME_MEASURE: viability, T/C (%)
Numbers only, in %.

Use the examples below as a reference point.
# MOLECULE, viability, T/C [%]
data = [
    ("C=CC(=O)N1CCN(c2nc(OCC3CCCN3C)nc3c(F)c(-c4nc(N)cc(C)c4C(F)(F)F)c(Cl)cc23)C(C)C1 (stereo not given) + C#Cc1c(F)ccc2cc(O)cc(-c3ncc4c(N5CC6CCC(C5)N6)nc(OCC56CCCN5CC(F)C6)nc4c3F)c12", 4.48),
    ("O=C(c1ccc(F)c(F)c1Nc1ccc(I)cc1F)N1CC(O)([C@@H]2CCCCN2)C1 + C=CC(=O)N1CCN(c2nc(OCC3CCCN3C)nc3c(F)c(-c4nc(N)cc(C)c4C(F)(F)F)c(Cl)cc23)C(C)C1", 2.78),
    ("O=C(c1ccc(F)c(F)c1Nc1ccc(I)cc1F)N1CC(O)([C@@H]2CCCCN2)C1 + C#Cc1c(F)ccc2cc(O)cc(-c3ncc4c(N5CC6CCC(C5)N6)nc(OCC56CCCN5CC(F)C6)nc4c3F)c12", 0.54),
    ("CCN1CCN(Cc2ccc(Nc3ncc(F)c(-c4cc(F)c5nc(C)n(C(C)C)c5c4)n3)nc2)CC1 + C#Cc1c(F)ccc2cc(O)cc(-c3ncc4c(N5CC6CCC(C5)N6)nc(OCC56CCCN5CC(F)C6)nc4c3F)c12", 2.67),
]

// next item, viability, T/C requested
So the reported viability, T/C for C[C@@H](NC(=O)c1ncnc(N)c1Cl)c1ncc(C(=O)Nc2cc(C(F)(F)F)c(Cl)cn2)s1 + C=CC(=O)N1CCN(c2nc(OCC3CCCN3C)nc3c(F)c(-c4nc(N)cc(C)c4C(F)(F)F)c(Cl)cc23)C(C)C1 , on 377384-186-R-J1-PDC complex spheroid viability, turned out to be 119
